experiment: yeast display, Sf9 membrane polyspecificity reagent, FACS + sequencing; frameworks hold sequencing errors
property.measured: polyreactivity (PSR sort gate)

- QVQLVESGGGLVQAGGSLRLSCAASGSIFWGNAMGWYRQAPGKERELVADISGGDTYYADSVKGRFTISRDNAKNTVYLQMNSLKPEDTAVYYCAADVWQYFYPYGYYYWGLGTQVTVSS: high polyreactivity
- QVQLVESGGGLVQAGGSLRLSCDASGITFIRNGMGWYRQAPGKERELVAAISDTGARTYYADSVKGRFTISRDNAKNTVYLQMNSLKPEDTAVYYCAAEVRTRYLYSFRWDDYWGQGTQVTVSS: low polyreactivity
- QVQLVESGGGLVQAGGSLSLICAASGSTFSQYFMGLYRQAPGKDRELVAGISSRGTSTYYADSVKGRFTISRDNAQNTFYLQMNSLKPEDTAVFYCNRGKLYNTYDYWGQGTQVNVSS: low polyreactivity
- QVQLVESGGGLVQAGGSLRLSCAASGLTFYLYAMGWYRPAPGKERELVAGISYRGASTYYADSVKGRFTISRDNAKNTVYLQMNSLKPEDTAVYYCAADDTTPNGVYWGQGTQVTVSS: low polyreactivity
- QVQLEESGGGLVQAGGSLRLSCAASGSTFYINAMGWYRQAPGKERELVAAITWRGGRTYYADSVKGRFTISRDNAKNTVYLQLNSLKPEDTAVYYCAAKVRWHRGTSSYYYWGQGTQVTVSS: high polyreactivity

---

test: yeast display, Sf9 membrane polyspecificity reagent, FACS + sequencing; frameworks hold sequencing errors
property.measured: polyreactivity (PSR sort gate)

- QVQLVESGGGLVQAGGSLRLSCAASGRIFAYYAMGWYRQAPGKERELVAAISRSGVSTYYADSVKGRFTISRDNAKNTVYLQMNSLKPEDTAVYYCAASWWYEIFDYWGQGTQVTVSS: low polyreactivity
- QVQLVESGGGLVQAGGSLRLSCAASGNTFRWYAMGWYRQAPGKERELVAAITWSGGSTYYADSVKGRFTISRDNAKNPVYLQMNSLKPEDTAVYYCAARRWAGEYDYWGQGTQVTVSS: low polyreactivity

---

test: yeast display, Sf9 membrane polyspecificity reagent, FACS + sequencing; frameworks hold sequencing errors
property.measured: polyreactivity (PSR sort gate)

• QVQLQESGGHLEQSGGSLRLSCTASGTISDVRVMGWYRQAPGKERELVATISYVTITYYADSVKGRFTISRDSEKHRVSADDEPETGRYRGVLLRYYWGLGTQVTVSS = low polyreactivity
• QVQLVESGGGLVQAGGSLRLSCAASGSTFDTYAMGWYRQAPGKERELVAAISYSGASTYYADSVKGRFTISRDNAKNTVYLQMNSLKPEDTAVYYCSADGGYYWLYDYWGQGTQVTVSS = low polyreactivity
• QVQLVESGGGLVQAGGSLRLSCAASGRTFPTYAMGWYRQAPGKERELVATISYNGGRTYYADSVKGRFTISRDNAKNTVYLQMNSLKPEDTAVYDCNAVVYVVGDFDYWGQGTQVTVSS = high polyreactivity
• QVQLVESGGGLVQAGGSLRLSCAASGSILVRYAMGWYRQAPGKERELVAAITYSVGSTYYADSVKGRFTISRDNAKNTVYLQMNSLKPEDTAVYYCAASGGTEVLLMDYWGQGSQVTVSS = low polyreactivity
• QVQLVESGGGLVQAGGSLRLSCAASGSIISSYAMGWYRKAPGKETELLAVITRSGGSTYYADSVKGRFTISRDNAKNTVYLQMKSLKPVDTAVYYCNAQPTRIKLPSYDYWGQGTQVTVST = high polyreactivity
• QVQLVESGGGLVQAGGSLRLSCAASGSIFLQNAMGWYRQAPGKERELVAAITNGGSTNYADSVKGRFTISRDNAKNTVYLQMNSLKPEDTAVYYCAVVRSYRGINDYWGQGTQVTVSS = low polyreactivity
• QVQLVESGGGLVQAGGSLRLSCAASGSTFDYNAMGWYRQAPGKERELVAGISGGSSTNYADSVKGRFTISRDNAKNTVYLQMNSLKPEDTAVYYCNAQRLPLRYEMDYWGQGTQVTVSS = low polyreactivity
• QVQLVESGGGLVQAGGSLRLSCAASGRIFTHNAMGGYRQAPGKERELVAAITIGGRTNYADSVKGRFTISRDNAKYTVYLQMNSLKPEDTAVYYCDRRYGTWNAYDYWGQGTLVTVSS = low polyreactivity
• QVQLVESGGGLVQAGGSLRLSCAASGLTFEYNAMGWYRQAPGKERELVAAITSGVNTYYADSVKGRFTISRDNAKNTVYLQMNSLKPEDTAVYYCAKYRWNWRYVSRGDSWGQGTQVTVSS = high polyreactivity
• QVQLVESGGGLVQAGGSLRLSCAASGLTFYYYAMGWYRQAPGKERELVAAITSGGITYYADSVKGRFTISRDNEKNTVYLQMNSLKPEDTAVYYCAARYHIDTLFYGSRYDYWGQGTQVTVSS = high polyreactivity
• QVQLVESGVGLVQAGGSLRLSCAASGSIFYQNAMGWYRQAPGKEREFVAAITWIGGSTYYADSVKGRFTISRDNAKNTVYLQMNSLKPEDTAVYYCARRLLRGSDWGQGTQVTVSS = high polyreactivity
